target: rat RXFP2 (Rattus norvegicus, UniProt F7EMH8); assay: INSL3-stimulated CYP11B2 mRNA expression in H295R stably expressing rat RXFP2; format: cell-based; parameters: expressed in transfected cells; conditions: 48 h of treatment; read-out: EC50 on CYP11B2 mRNA expression, H295R-rRXFP2
Sequence (F7EMH8 20-737): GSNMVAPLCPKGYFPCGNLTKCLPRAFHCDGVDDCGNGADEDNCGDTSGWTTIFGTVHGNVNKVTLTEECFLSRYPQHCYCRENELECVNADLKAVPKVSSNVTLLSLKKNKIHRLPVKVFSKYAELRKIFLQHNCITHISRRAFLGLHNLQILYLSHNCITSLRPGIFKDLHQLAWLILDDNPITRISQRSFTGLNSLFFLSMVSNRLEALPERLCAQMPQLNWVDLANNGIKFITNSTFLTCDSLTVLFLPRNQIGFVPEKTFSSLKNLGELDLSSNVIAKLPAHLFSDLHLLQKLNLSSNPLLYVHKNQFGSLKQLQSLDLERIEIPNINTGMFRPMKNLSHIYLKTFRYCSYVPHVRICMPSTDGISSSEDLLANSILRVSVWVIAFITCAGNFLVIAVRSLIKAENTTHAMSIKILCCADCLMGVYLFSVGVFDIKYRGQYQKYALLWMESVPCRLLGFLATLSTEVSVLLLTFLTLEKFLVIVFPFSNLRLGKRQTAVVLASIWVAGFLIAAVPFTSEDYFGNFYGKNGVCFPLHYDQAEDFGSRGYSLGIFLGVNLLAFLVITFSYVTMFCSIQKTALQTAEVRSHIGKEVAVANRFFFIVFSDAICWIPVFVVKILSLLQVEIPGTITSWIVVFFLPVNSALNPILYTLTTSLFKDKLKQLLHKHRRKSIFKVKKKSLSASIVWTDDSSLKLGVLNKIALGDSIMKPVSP
pEC50: −log10 of the molar value. Bridge positions count the residues as written; N and C are the ends. Ends that are not written are not given here. I, II: the chains in the order shown.

SUBSTANCE	STUDY SYSTEM	pEC50
I: PTPEMREKLCGHHFVRALVRVCGGPRWSTEA / II: AAATNPARYCCLSGCTQQDLLTLCPY (disulfide I:10-II:11, I:22-II:24, II:10-II:15) [INSL3, Insulin-like peptide 3]	rat RXFP2 (Rattus norvegicus, UniProt F7EMH8)	9.40
